# Target desc: native ARG1 enzyme in lysates of RBC (Homo sapiens)
# Construct: native ARG1 enzyme in lysates of RBC
# Sequence (P05089 whole entry): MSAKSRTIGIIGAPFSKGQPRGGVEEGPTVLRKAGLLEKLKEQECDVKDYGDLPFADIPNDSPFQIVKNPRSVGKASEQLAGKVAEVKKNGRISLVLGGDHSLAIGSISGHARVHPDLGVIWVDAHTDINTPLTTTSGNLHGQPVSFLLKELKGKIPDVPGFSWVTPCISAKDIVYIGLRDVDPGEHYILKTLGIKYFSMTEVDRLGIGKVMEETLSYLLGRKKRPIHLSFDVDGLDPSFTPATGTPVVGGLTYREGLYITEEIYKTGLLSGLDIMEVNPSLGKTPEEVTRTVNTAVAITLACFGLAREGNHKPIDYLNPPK
# Experimental protocol: Arginase enzymatic assay in RBC lysates from healthy donors
# Condition notes: human red blood cell lysates; read-out: IC50 Inh RBC
Endpoint label: IC50

Consider the worked cases shown below.
> print(dat)
                                   compound   reported
1  NC(CCCCB(O)O)(C(=O)O)C1CCN(C2CCc3ccccc32)CC1 (single isomer, unassigned) [Compound 3]  > 5000 nM
2  NC(CCCCB(O)O)(C(=O)O)C1CCN(C2CCCc3cccnc32)CC1 (single isomer, unassigned)   < 500 nM
3  NC(CCCCB(O)O)(C(=O)O)C1CCN(C2CCCc3ccc(F)cc32)CC1 (single isomer, unassigned)   < 500 nM
4  CC(c1ccccc1)N1CCC(C(N)(CCCCB(O)O)C(=O)O)CC1 (single isomer, unassigned) [Compound 11]  > 5000 nM
5  CC(c1ccccc1)N1CCC(C(N)(CCCCB(O)O)C(=O)O)CC1 (stereo not shown) [Compound 9]   < 500 nM

Problem: Given the compound NC(=O)C(N)(CCCCB(O)O)C1CCN(C2CCc3cc(Cl)ccc32)CC1 (stereo not shown) , what is its reported IC50?
Result: < 500 nM

Problem: NC(CCCCB(O)O)(C(=O)O)C1CCN(C2CCCc3cc(Cl)ccc32)CC1 (stereo not shown) [Compound 16] ?
Result: < 500 nM

====

# Target desc: recombinant human ARG2 (Homo sapiens)
# Sequence (P78540 23-354): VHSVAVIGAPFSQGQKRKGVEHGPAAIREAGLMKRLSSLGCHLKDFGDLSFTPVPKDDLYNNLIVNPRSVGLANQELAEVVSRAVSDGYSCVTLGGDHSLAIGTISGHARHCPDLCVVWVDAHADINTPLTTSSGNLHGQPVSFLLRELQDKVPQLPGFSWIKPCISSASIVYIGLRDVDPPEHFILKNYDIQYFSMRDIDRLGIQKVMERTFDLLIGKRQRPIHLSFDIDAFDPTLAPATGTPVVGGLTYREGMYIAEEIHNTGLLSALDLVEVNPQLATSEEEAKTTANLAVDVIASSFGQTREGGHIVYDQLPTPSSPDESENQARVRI
# Experimental protocol: Arginase enzymatic assay in vitro, recombinant human ARG2 (colorimetric urea detection)
# Condition notes: recombinant human arginase 2; read-out: IC50 Inh rhARG2
Endpoint label: IC50

> print(dat)
                                   molecule  endpoint.label  reported
1  NC(CCCCB(O)O)(C(=O)O)C1CCN(C2CCc3ccc(F)cc32)CC1 (single isomer, unassigned)            IC50  < 500 nM

Problem: Given the molecule NC(CCCCB(O)O)(C(=O)O)C1CCN(C2CCCc3ccccc32)CC1 (single isomer, unassigned) [Compound 4] , what is its reported IC50?
Result: 500 to 5000 nM

====

# Target desc: recombinant human ARG2 (Homo sapiens)
# Construct: purchased BPS Bioscience 71659
# Experimental protocol: Arginase enzymatic assay in vitro, recombinant human ARG2 (colorimetric urea detection)
# Format: biochemical
# Condition notes: recombinant human arginase 2; read-out: IC50 Inh rhARG2
Endpoint label: IC50

Consider the worked cases shown below.
> print(dat)
                                   compound     reported
1  NC(=O)C(N)(CCCCB(O)O)C1CCN(C2CCc3cc(Cl)ccc32)CC1 (centres unmarked)  0.5 to 5 µM
2  NC(CCCCB(O)O)(C(=O)O)C1CCN(C2Cc3ccccc3C2)CC1 (single isomer, unassigned) [Compound 25]       > 5 µM
3  NC(CCCCB(O)O)(C(=O)O)C1CCN(C2CCCc3cccnc32)CC1 (single isomer, unassigned)     < 0.5 µM

Problem: Given the compound NC(CCCCB(O)O)(C(=O)O)C1CCN(C2CCc3cc(Cl)ccc32)C1 (centres unmarked) , what is its reported IC50?
Result: 0.5 to 5 µM

Problem: NC(CCCCB(O)O)(C(=O)O)C1CCN(C2CCCc3ccccc32)CC1 (single isomer, unassigned) [Compound 6] ?
Result: > 5 µM

Problem: NC(CCCCB(O)O)(C(=O)O)C1CCN(C2CCCc3ccccc32)CC1 (single isomer, unassigned) [Compound 8] ?
Result: < 0.5 µM

Problem: NC(CCCCB(O)O)(C(=O)O)C1CCN(C2Cc3ccccc3C2)CC1 (centres unmarked) [Compound 23] ?
Result: > 5 µM

Problem: CC(c1ccccc1)N1CCC(C(N)(CCCCB(O)O)C(=O)O)CC1 (single isomer, unassigned) [Compound 11] ?
Result: > 5 µM

Problem: CC(c1ccccc1)N1CCC(C(N)(CCCCB(O)O)C(=O)O)CC1 (centres unmarked) [Compound 9] ?
Result: 0.5 to 5 µM

Problem: NC(CCCCB(O)O)(C(=O)O)C1CCN(C2CCCCc3ccccc32)CC1 (single isomer, unassigned) ?
Result: 0.5 to 5 µM

Problem: CNC(CCCCB(O)O)(C(=O)O)C1CCN(C2CCCc3ccccc32)CC1 (single isomer, unassigned) ?
Result: < 0.5 µM
